meta.source: patent US8822503B2

Target: human liver GK (Homo sapiens)
Construct: GST (glutathione S-transferase) (N)
Sequence (P35557 1-466 isoform P35557-2): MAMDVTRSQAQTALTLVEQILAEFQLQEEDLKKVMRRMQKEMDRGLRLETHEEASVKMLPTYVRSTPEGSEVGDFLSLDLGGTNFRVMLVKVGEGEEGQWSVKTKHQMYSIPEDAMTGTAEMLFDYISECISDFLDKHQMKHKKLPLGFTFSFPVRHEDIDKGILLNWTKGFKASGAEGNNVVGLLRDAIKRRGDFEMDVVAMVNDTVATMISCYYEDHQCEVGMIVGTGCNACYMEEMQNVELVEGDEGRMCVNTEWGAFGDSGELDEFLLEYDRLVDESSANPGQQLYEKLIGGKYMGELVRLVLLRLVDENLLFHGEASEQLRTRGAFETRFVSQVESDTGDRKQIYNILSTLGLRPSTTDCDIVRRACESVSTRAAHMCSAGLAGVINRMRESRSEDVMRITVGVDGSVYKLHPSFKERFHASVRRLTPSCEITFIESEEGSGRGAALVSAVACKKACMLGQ
Test: GK activation test
Settings: test compound concentration needed to activate 50% of maximum activation ability; 4 mM 14C-labeled glucose, 2 mM ATP, room temperature, 20 minutes
Description: The GK activation test for the test compounds was performed by the method of Irwin A. Rose et al. (J. Biol. Chem. 1964 January; 239:12-7) with partial modifications. […] After 20 minutes, AG1-X4 resin (BioRad) suspended in 25 mM Hepes-KOH (pH=7.1) was added and the reaction product, labeled glucose 6-phosphate, was allowed to bind thereto. […] The labeling activity of the eluted labeled glucose 6-phosphate was measured as an index of GK activity. […]
pEC50: −log10 of the molar value.
Let's look at some molecules and their measured pEC50.

INSERT INTO measurements (molecule, value_observed) VALUES
  ('O=C1CC[C@H](/C=C(\c2ccc(C(F)(F)F)cc2)c2ccc(OCCCO)c(=O)[nH]2)N1 [Example 4-170]', '5.00 to 5.52'),
  ('CSc1ccc(C(CC2CCC(=O)CC2)c2ccc(C)c(=O)[nH]2)cc1 (stereo not shown) [Example 2-20]', '5.52 to 6.30'),
  ('COCCCc1ccc(C(C[C@H]2CCC(=O)N2)c2ccc(Cl)c(=O)[nH]2)cc1 (single isomer, unassigned) [Example 4-338]', '5.52 to 6.30'),
  ('CC(C)(C)c1ccc(C(C[C@@H]2CCC(=O)N2)c2ccc(Cl)c(=O)[nH]2)cc1 (single isomer, unassigned) [Example 4-77]', '5.00 to 5.52'),
  ('Cc1ccc(/C(=C/C2CCCC2)c2ccc(S(=O)(=O)N(C)CCO)cc2)[nH]c1=O [Example 1-15]', '6.30 to 8.00');

Response field pEC50 (human liver GK (Homo sapiens)) for item O=C1CCC(CC(c2ccc(C(F)F)cc2)c2ccc(C3CC3)c(=O)[nH]2)N1 (single isomer, unassigned) [Example 4-341] : 5.00 to 5.52

Response field pEC50 (human liver GK (Homo sapiens)) for item Cc1ccc(/C(=C\[C@H]2CCC(=O)N2)c2ccc(Cl)c(=O)[nH]2)c(C)c1 [Example 4-31] : 5.00 to 5.52

* * *

Molecular target: human liver GK (Homo sapiens, UniProt P35557)
Construct: GST (glutathione S-transferase) (N)
Sequence (P35557 1-466 isoform P35557-2): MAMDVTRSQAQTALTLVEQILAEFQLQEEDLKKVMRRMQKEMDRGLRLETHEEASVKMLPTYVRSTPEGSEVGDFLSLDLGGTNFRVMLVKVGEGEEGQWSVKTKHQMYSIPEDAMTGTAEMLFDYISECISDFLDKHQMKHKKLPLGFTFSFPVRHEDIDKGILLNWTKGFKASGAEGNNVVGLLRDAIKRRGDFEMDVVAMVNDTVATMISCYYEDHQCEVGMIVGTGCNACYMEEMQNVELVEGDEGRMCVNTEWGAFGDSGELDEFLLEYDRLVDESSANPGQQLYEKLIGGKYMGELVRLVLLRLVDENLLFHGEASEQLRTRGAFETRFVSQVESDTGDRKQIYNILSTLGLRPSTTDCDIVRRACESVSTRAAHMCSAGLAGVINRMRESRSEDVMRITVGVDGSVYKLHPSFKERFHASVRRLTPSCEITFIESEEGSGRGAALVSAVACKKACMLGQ
Test: GK activation test
Conditions: test compound concentration needed to activate 50% of maximum activation ability; 4 mM 14C-labeled glucose, 2 mM ATP, room temperature, 20 minutes
test_readout: EC50

Example entries begin here.
INSERT INTO measurements (compound, test_readout, value_observed) VALUES
  ('CC(C)(C)c1ccc(/C(=C\[C@H]2CCN(C(=O)C3CCOCC3)C2)c2ccc(Cl)c(=O)[nH]2)cc1 [Example 4-93]', 'EC50', '3000 to 10000 nM'),
  ('O=C1CC[C@H](/C=C(\c2ccc(OCCF)cc2)c2ccc(C3CC3)c(=O)[nH]2)N1 [Example 4-287]', 'EC50', '10 to 500 nM');

Entry CCCCc1ccc(/C(=C\[C@H]2CCC(=O)N2)c2ccc(Cl)c(=O)[nH]2)cc1 [Example 4-17] — recorded EC50 = 10 to 500 nM

Entry O=c1[nH]c(/C(=C/C2CCOCC2)c2ccc(N3CCOCC3)cc2)ccc1Cl [Example 1-111] — recorded EC50 = 3000 to 10000 nM

Entry CCN(CC)CCCSc1ccc(/C(=C\[C@H]2CCC(=O)C2)c2ccc(C(F)(F)F)c(=O)[nH]2)cc1Cl [Example 1-84] — recorded EC50 = 500 to 3000 nM

Entry CC(C)c1ccc(/C(=C\C2CCOCC2)c2ccc(Cl)c(=O)[nH]2)cc1 [Example 1-109] — recorded EC50 = 500 to 3000 nM

Entry O=c1[nH]c(/C(=C/C2CCOC2)c2ccc(SC3CC3)cc2)ccc1C(F)(F)F (centres unmarked) [Example 1-48] — recorded EC50 = 500 to 3000 nM

Entry O=C1CC[C@H](/C=C(\c2ccc(OCCCCO)c(Cl)c2)c2ccc(C3CC3)c(=O)[nH]2)N1 [Example 4-11] — recorded EC50 = 10 to 500 nM

Entry COC(=O)c1ccc(/C(=C\C2CCCC2)c2ccc(C)c(=O)[nH]2)cc1 [Example 1-33] — recorded EC50 = 500 to 3000 nM

Entry CCC(=O)N1CC[C@H](/C=C(\c2ccc(C(C)(C)C)cc2)c2ccc(Cl)c(=O)[nH]2)C1 [Example 4-68] — recorded EC50 = 10 to 500 nM

Entry CC(C)(C)c1ccc(/C(=C\[C@H]2CCC(=O)N2)c2ccc(-c3ccncc3)c(=O)[nH]2)cc1 [Example 4-179] — recorded EC50 = 10 to 500 nM

Entry O=C1CC[C@H](/C=C(\c2ccc3c(c2)CCO3)c2ccc(C3CC3)c(=O)[nH]2)N1 [Example 4-123] — recorded EC50 = 10 to 500 nM

Entry C[S+]([O-])c1ccc(/C(=C\[C@H]2CCC(=O)N2)c2ccc(Cl)c(=O)[nH]2)cc1 (some centres unmarked) [Example 4-158] — recorded EC50 = 3000 to 10000 nM

Entry CC(C)(C)c1ccc(C(C[C@H]2CCC(=O)N2)c2ccc(C(F)(F)F)c(=O)[nH]2)cc1 (single isomer, unassigned) [Example 4-314] — recorded EC50 = 500 to 3000 nM

Entry CC(C)Cn1cc(-c2ccc(/C(=C/[C@H]3CCC(=O)N3)c3ccc(C(C)(C)C)cc3)[nH]c2=O)cn1 [Example 4-182] — recorded EC50 = 500 to 3000 nM

Entry COc1cc(/C(=C\[C@H]2CCC(=O)N2)c2ccc(C3CC3)c(=O)[nH]2)ccc1C(F)F [Example 4-135] — recorded EC50 = 10 to 500 nM

Entry O=C1CC[C@H](CC(c2ccc(O)c(Cl)c2)c2ccc(C3CC3)c(=O)[nH]2)N1 (single isomer, unassigned) [Example 4-250] — recorded EC50 = 500 to 3000 nM

Entry Cc1ccc(/C(=C\[C@H]2CCC(=O)N2)c2ccc(C3CC3)c(=O)[nH]2)cc1Cl [Example 4-106] — recorded EC50 = 10 to 500 nM

* * *

Target: human liver GK (Homo sapiens)
Construct: GST (glutathione S-transferase) (N)
Assay: GK activation test
Settings: test compound concentration needed to activate 50% of maximum activation ability; 4 mM 14C-labeled glucose, 2 mM ATP, room temperature, 20 minutes
test_readout: EC50

INSERT INTO assay_data (compound, value_observed) VALUES
  ('Cc1ccc(C(CC2CCCC2)c2ccc(S(C)(=O)=O)cc2)[nH]c1=O (centres unmarked) [Example 2-2]', '500 to 3000 nM'),
  ('CC(C)(C)c1ccc(/C(=C\Cn2ncccc2=O)c2ccc(Cl)c(=O)[nH]2)cc1 [Example 6-33]', '500 to 3000 nM'),
  ('CCSc1ccc(/C(=C\C2CCCC2)c2ccc(C)c(=O)[nH]2)cc1 [Example 1-9]', '10 to 500 nM');

Response field EC50 (human liver GK (Homo sapiens)) for item O=C1CC[C@H](/C=C(\c2ccc(OC(F)(F)F)cc2)c2ccc(C3CC3)c(=O)[nH]2)N1 [Example 4-126] : 10 to 500 nM

Response field EC50 (human liver GK (Homo sapiens)) for item CCc1ccc(/C(=C\[C@H]2CCC(=O)N2)c2ccc(Cl)c(=O)[nH]2)cc1 [Example 4-14] : 500 to 3000 nM

Response field EC50 (human liver GK (Homo sapiens)) for item COc1ccc(C(C[C@H]2CCC(=O)N2)c2ccc(C3CC3)c(=O)[nH]2)cc1Cl (single isomer, unassigned) [Example 4-327] : 3000 to 10000 nM

Response field EC50 (human liver GK (Homo sapiens)) for item CCOc1ccc(C(C[C@H]2CCC(=O)N2)c2ccc(Cl)c(=O)[nH]2)cc1C (single isomer, unassigned) [Example 4-240] : 3000 to 10000 nM

Response field EC50 (human liver GK (Homo sapiens)) for item O=C1OCCN1C/C=C(\c1ccc(S(=O)(=O)C2CC2)cc1)c1ccc(Cl)c(=O)[nH]1 [Example 6-21] : 500 to 3000 nM
